// data source = PubChem BioAssay AID1918947

Measured viability, T/C by item
Tested on: A498 complex spheroid viability
Run Description: Anticancer human tumor A498 cell line growth inhibition;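 also: spheroids exposed to agents for seven days before readout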;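 as to viability, T/C: 100% = DMSO vehicle-treated spheroids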
Measurement Parameters: second compound 1 µM; first compound 0.001 µM; stronger effect = lower value
Give the number; % is assumed, so skip it.

Below: 4 compounds and their reported viability, T/C.
CC[C@@]1(O)C(=O)OCc2c1cc1n(c2=O)Cc2cc3c(CN(C)C)c(O)ccc3nc2-1 + NC1CCC(NC2CC2c2ccccc2)CC1; 82.3
Cn1ncnc1C1c2n[nH]c(=O)c3cc(F)cc(c23)NC1c1ccc(F)cc1 (stereo not given) + NC1CCC(NC2CC2c2ccccc2)CC1; 94.5
Cn1ncnc1C1c2n[nH]c(=O)c3cc(F)cc(c23)NC1c1ccc(F)cc1 (stereo not given) + NC1CC1c1ccc(-c2cccc(O)c2)cc1; 93.3
CC(C)CC(NC(=O)C(Cc1ccccc1)NC(=O)c1cnccn1)B(O)O (stereo not given) + NC1CCC(NC2CC2c2ccccc2)CC1; 39.5

Now look at this one.
## Task Any idea what viability, T/C was measured for CC(C)CC(NC(=O)C(Cc1ccccc1)NC(=O)c1cnccn1)B(O)O (stereo not given) + NC1CC1c1ccc(-c2cccc(O)c2)cc1 ?
## Result 18.4

---

Tested on: A498 complex spheroid viability
Run Description: Anticancer human tumor A498 cell line growth inhibition;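 also: spheroids exposed to agents for seven days before readout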;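 as to viability, T/C: 100% = DMSO vehicle-treated spheroids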
Measurement Parameters: second compound 0.1 µM; first compound 0.1 µM; stronger effect = lower value
Description: Multicellular complex tumor spheroid response to LSD1 Inhibitor Iadademstat in combination with a variety of drugs and investigational agents in selected tumor cell lines The current study was undertaken to assess response to LSD1 inhibitors in combination with standard-of-care drugs and investigational agents in solid tumor complex spheroid models as well as in the K-562 leukemia. […] Compounds. […] If the clinical Cmax for an agent had not been determined, the highest concentration tested was 10 microM. […]
Hi! Could you tag entries with viability, T/C below 90% as t, and those at or above as f? Much appreciated.

CC(C)CC(NC(=O)C(Cc1ccccc1)NC(=O)c1cnccn1)B(O)O (centres undefined) + NC1CC1c1ccc(-c2cccc(O)c2)cc1; t
Nc1ncn(C2CC(O)C(CO)O2)c(=O)n1 (centres undefined) + NC1CCC(NC2CC2c2ccccc2)CC1; t
O=C(C=Cn1cnc(-c2cc(C(F)(F)F)cc(C(F)(F)F)c2)n1)NNc1cnccn1 + NC1CCC(NC2CC2c2ccccc2)CC1; t
Nc1ncn(C2CC(O)C(CO)O2)c(=O)n1 (centres undefined) + NC1CC1c1ccc(-c2cccc(O)c2)cc1; f
CC1COCCN1c1cc(-c2ccnn2C)c2ccnc(-c3ccn[nH]3)c2n1 (centres undefined) + NC1CC1c1ccc(-c2cccc(O)c2)cc1; t

## Task Hello, is viability, T/C of the following molecule strictly smaller than 90%? CC(C)CC(NC(=O)C(Cc1ccccc1)NC(=O)c1cnccn1)B(O)O (centres undefined) + NC1CCC(NC2CC2c2ccccc2)CC1
## Result t

## Task Quick check: does Cn1ncnc1C1c2n[nH]c(=O)c3cc(F)cc(c23)NC1c1ccc(F)cc1 (centres undefined) + NC1CC1c1ccc(-c2cccc(O)c2)cc1 have viability, T/C under 90%?
## Result f

## Task Problem: For the molecule CC1(C)CCC(CN2CCN(c3ccc(C(=O)NS(=O)(=O)c4ccc(NCC5CCOCC5)c([N+](=O)[O-])c4)c(Oc4cnc5[nH]ccc5c4)c3)CC2)=C(c2ccc(Cl)cc2)C1 + NC1CC1c1ccc(-c2cccc(O)c2)cc1 , is viability, T/C under 90%?
## Result f

## Task Identify whether the molecule CC[C@@]1(O)C(=O)OCc2c1cc1n(c2=O)Cc2cc3c(CN(C)C)c(O)ccc3nc2-1 + NC1CCC(NC2CC2c2ccccc2)CC1 records viability, T/C below 90%.
## Result t

## Task Report whether reported viability, T/C is lower than 90% (strictly) for CC1COCCN1c1cc(-c2ccnn2C)c2ccnc(-c3ccn[nH]3)c2n1 (centres undefined) + NC1CCC(NC2CC2c2ccccc2)CC1
## Result t

## Task Consider the molecule Cn1ncnc1C1c2n[nH]c(=O)c3cc(F)cc(c23)NC1c1ccc(F)cc1 (centres undefined) + NC1CCC(NC2CC2c2ccccc2)CC1 . Is its viability, T/C strictly less than 90%?
## Result t

## Task hey, is viability, T/C for CC(C)CC(NC(=O)CNC(=O)c1cc(Cl)ccc1Cl)B1OC(=O)CC(CC(=O)O)(C(=O)O)O1 (centres undefined) + NC1CCC(NC2CC2c2ccccc2)CC1 lower than 90% or not?
## Result t

## Task Dear colleague, could you confirm whether viability, T/C of COc1cc(Nc2ncc3c(n2)-c2ccc(Cl)cc2C(c2c(F)cccc2OC)=NC3)ccc1C(=O)O + NC1CC1c1ccc(-c2cccc(O)c2)cc1 falls below 90%? Thanks.
## Result t

## Task Find out if reported viability, T/C for O=C(c1cc(Cc2n[nH]c(=O)c3ccccc23)ccc1F)N1CCN(C(=O)C2CC2)CC1 + NC1CC1c1ccc(-c2cccc(O)c2)cc1 is less than 90%
## Result f

---

Tested on: A498 complex spheroid viability
Run Description: Anticancer human tumor A498 cell line growth inhibition;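 also: spheroids exposed to agents for seven days before readout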;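 as to viability, T/C: 100% = DMSO vehicle-treated spheroids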
Measurement Parameters: second compound 10 µM; first compound 0.000949 µM; stronger effect = lower value
Measurement Label: viability, T/C (%)
Response body: numeric value in %, unit text excluded.

Examples with answers:
Nc1ccn(C2OC(CO)C(O)C2(F)F)c(=O)n1 (stereo unspecified) + NC1CC1c1ccc(-c2cccc(O)c2)cc1; 23.5
Nc1ccn(C2OC(CO)C(O)C2(F)F)c(=O)n1 (stereo unspecified) + NC1CCC(NC2CC2c2ccccc2)CC1; 22.3
Nc1ncn(C2CC(O)C(CO)S2)c(=O)n1 (stereo unspecified) + NC1CCC(NC2CC2c2ccccc2)CC1; 74.5
CCc1c2c(nc3ccc(O)cc13)-c1cc3c(c(=O)n1C2)COC(=O)[C@]3(O)CC + NC1CC1c1ccc(-c2cccc(O)c2)cc1; 41
CCc1c2c(nc3ccc(O)cc13)-c1cc3c(c(=O)n1C2)COC(=O)[C@]3(O)CC + NC1CCC(NC2CC2c2ccccc2)CC1; 42.5

## Task Would you mind telling me what viability, T/C value was observed for Nc1ncn(C2CC(O)C(CO)S2)c(=O)n1 (stereo unspecified) + NC1CC1c1ccc(-c2cccc(O)c2)cc1 ?
## Result 104

---

Test system: A498 complex spheroid viability
Run Description: Anticancer human tumor A498 cell line growth inhibition; active = viability on the fitted dose curve at most 10% of control; inactive = the rest;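 also: spheroids exposed to agents for seven days before readout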
Measurement Parameters: second compound 1 µM; first compound 0.00316 µM
Text: Multicellular complex tumor spheroid response to LSD1 Inhibitor Iadademstat in combination with a variety of drugs and investigational agents in selected tumor cell lines The current study was undertaken to assess response to LSD1 inhibitors in combination with standard-of-care drugs and investigational agents in solid tumor complex spheroid models as well as in the K-562 leukemia. […] Compounds. […] If the clinical Cmax for an agent had not been determined, the highest concentration tested was 10 microM. […]
Select the matching outcome among T = active, F = inactive

// below: answered compounds
CC(C)CC(NC(=O)C(Cc1ccccc1)NC(=O)c1cnccn1)B(O)O (centres undefined) + NC1CCC(NC2CC2c2ccccc2)CC1; T
Cn1ncnc1C1c2n[nH]c(=O)c3cc(F)cc(c23)NC1c1ccc(F)cc1 (centres undefined) + NC1CCC(NC2CC2c2ccccc2)CC1; F
O=C(C=Cn1cnc(-c2cc(C(F)(F)F)cc(C(F)(F)F)c2)n1)NNc1cnccn1 + NC1CC1c1ccc(-c2cccc(O)c2)cc1; F

## Task I'd appreciate the recorded outcome for Nc1ncn(C2CC(O)C(CO)O2)c(=O)n1 (centres undefined) + NC1CCC(NC2CC2c2ccccc2)CC1 from this test.
## Result F

---

This section presents compounds with their documented IC50 values.
Test system: A498 complex spheroid viability
Run Description: Anticancer human tumor A498 cell line growth inhibition;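 also: spheroids exposed to agents for seven days before readout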
Measurement Parameters: curve of first compound; second compound 0.1 µM
// note: answer is a bare numeric in nM

CC1COCCN1c1cc(C2(S(C)(=N)=O)CC2)nc(-c2ccnc3[nH]ccc23)n1 (centres undefined) + NC1CCC(NC2CC2c2ccccc2)CC1; 648
CC[C@@]1(O)C(=O)OCc2c1cc1n(c2=O)Cc2cc3c(CN(C)C)c(O)ccc3nc2-1 + NC1CC1c1ccc(-c2cccc(O)c2)cc1; 42.5

Read the next record carefully.
## Task Sample CC(C)CC(NC(=O)CNC(=O)c1cc(Cl)ccc1Cl)B1OC(=O)CC(CC(=O)O)(C(=O)O)O1 (centres undefined) + NC1CCC(NC2CC2c2ccccc2)CC1 — what was its IC50?
## Result 4.58

---

The following molecules are shown together with reported viability, T/C values.
Tested on: A498 complex spheroid viability
Run Description: Anticancer human tumor A498 cell line growth inhibition;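 also: spheroids exposed to agents for seven days before readout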;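 as to viability, T/C: 100% = DMSO vehicle-treated spheroids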
Measurement Parameters: second compound 10 µM; first compound 0.00949 µM; stronger effect = lower value
Write the answer as a number in %, unit excluded.

Solved entries (count: 5):
CCc1c2c(nc3ccc(O)cc13)-c1cc3c(c(=O)n1C2)COC(=O)[C@]3(O)CC + NC1CCC(NC2CC2c2ccccc2)CC1; 26
COc1cc(C2c3cc4c(cc3C(OC3OC5COC(C)OC5C(O)C3O)C3COC(=O)C23)OCO4)cc(OC)c1O (centres undefined) + NC1CCC(NC2CC2c2ccccc2)CC1; 64.3
CCN(c1cc(-c2ccc(CN3CCOCC3)cc2)cc(C(=O)NCc2c(C)cc(C)[nH]c2=O)c1C)C1CCOCC1 + NC1CC1c1ccc(-c2cccc(O)c2)cc1; 96.6
CCc1c2c(nc3ccc(O)cc13)-c1cc3c(c(=O)n1C2)COC(=O)[C@]3(O)CC + NC1CC1c1ccc(-c2cccc(O)c2)cc1; 23.3
NS(=O)(=O)OCC1CC(n2ccc3c(NC4CCc5ccccc54)ncnc32)CC1O (centres undefined) + NC1CCC(NC2CC2c2ccccc2)CC1; 11.8

## Task State the recorded viability, T/C for this entry: Nc1ncn(C2CC(O)C(CO)S2)c(=O)n1 (centres undefined) + NC1CC1c1ccc(-c2cccc(O)c2)cc1
## Result 118

## Task Recorded viability, T/C of Nc1ccccc1NC(=O)c1ccc(CNC(=O)OCc2cccnc2)cc1 + NC1CCC(NC2CC2c2ccccc2)CC1 , please.
## Result 62

## Task Find the recorded viability, T/C belonging to Nc1ccn(C2OC(CO)C(O)C2(F)F)c(=O)n1 (centres undefined) + NC1CC1c1ccc(-c2cccc(O)c2)cc1 and report it.
## Result 93.5

## Task Look up viability, T/C: O=C(C=Cc1cccc(S(=O)(=O)Nc2ccccc2)c1)NO + NC1CCC(NC2CC2c2ccccc2)CC1
## Result 70.4
